# TARGET DESC: STAT6 protein (Homo sapiens)
# Sequence (P42226 whole entry): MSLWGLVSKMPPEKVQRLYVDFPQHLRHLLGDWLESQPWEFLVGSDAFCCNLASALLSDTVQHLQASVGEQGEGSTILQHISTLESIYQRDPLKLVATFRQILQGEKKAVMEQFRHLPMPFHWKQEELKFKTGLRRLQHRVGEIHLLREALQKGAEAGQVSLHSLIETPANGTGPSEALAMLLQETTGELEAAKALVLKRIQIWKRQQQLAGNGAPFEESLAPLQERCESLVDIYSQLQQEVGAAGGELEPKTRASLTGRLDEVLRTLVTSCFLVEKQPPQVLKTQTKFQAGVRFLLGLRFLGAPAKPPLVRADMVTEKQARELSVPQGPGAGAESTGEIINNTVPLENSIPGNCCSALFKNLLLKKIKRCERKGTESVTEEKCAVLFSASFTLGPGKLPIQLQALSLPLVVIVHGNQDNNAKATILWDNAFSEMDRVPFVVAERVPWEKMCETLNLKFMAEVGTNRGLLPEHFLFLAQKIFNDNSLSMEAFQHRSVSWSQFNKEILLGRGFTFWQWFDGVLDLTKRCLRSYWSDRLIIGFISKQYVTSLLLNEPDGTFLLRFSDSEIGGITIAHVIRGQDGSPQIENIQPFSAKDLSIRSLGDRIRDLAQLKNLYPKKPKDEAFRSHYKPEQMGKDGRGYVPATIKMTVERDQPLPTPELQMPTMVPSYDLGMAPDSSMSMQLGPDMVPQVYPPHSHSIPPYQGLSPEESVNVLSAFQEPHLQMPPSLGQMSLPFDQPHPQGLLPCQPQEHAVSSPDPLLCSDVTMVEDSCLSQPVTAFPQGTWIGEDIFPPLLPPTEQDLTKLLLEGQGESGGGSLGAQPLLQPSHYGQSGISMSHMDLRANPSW
# ASSAY NAME: Fluorescence polarization (FP) binding assay, STAT6
# SETUP CONDITIONS: FP competition, 5 nM fluorescein-labeled tracer, 200 nM protein, PBS pH7.4; read-out: Binding STAT6
Examples of compounds with documented Ki follow.

| COMPOUND | TARGET DESC | Ki |
| --- | --- | --- |
| CNC(=O)CCN(C(=O)[C@@H]1C[C@H](OCC(=O)NC)CN1C(=O)[C@@H](NC(=O)c1cc2cc(C(F)(F)P(=O)(O)O)ccc2s1)C(C)(C)C)c1ccc(Br)cc1 [Compound 51] | STAT6 protein (Homo sapiens) | 100 to 1000 nM |

Entry under test: CC(=O)N1CC[C@H]2CC[C@@H](C(=O)N(C)c3ccccc3)N2C(=O)[C@@H](NC(=O)c2cc3cc(C(F)(F)P(=O)(O)O)ccc3[nH]2)C1 [Compound 360] . Its Ki was > 10000 nM

Entry under test: CC(C)(C)[C@H](NC(=O)c1cc2cc(C(F)(F)P(=O)(O)O)ccc2s1)C(=O)N1CCC[C@H]1C(=O)N1C[C@H]2CCN(C(=O)c3ccc(F)cc3)[C@H]2C1 [Compound 89] . Its Ki was > 10000 nM

Entry under test: CN(C)C(=O)CCN(C(=O)[C@@H]1CCCN1C(=O)[C@@H](NC(=O)c1cc2cc(C(F)(F)P(=O)(O)O)ccc2s1)C(C)(C)C)c1ccc(-c2ccccc2)cc1 [Compound 318] . Its Ki was 1000 to 10000 nM

Entry under test: CC(C)(C)[C@H](NC(=O)c1cc2cc(C(F)(F)P(=O)(O)O)ccc2s1)C(=O)N1CCN(C(=O)OCc2ccccc2)C[C@H]1C(=O)Nc1ncc(-c2ccccc2)s1 [Compound 201] . Its Ki was 1000 to 10000 nM

Entry under test: CCCCC(=O)N1CC[C@@H]2CN(C(=O)[C@@H]3CCCN3C(=O)[C@@H](NC(=O)c3cc4cc(C(F)(F)P(=O)(O)O)ccc4s3)C(C)(C)C)C[C@@H]21 [Compound 88] . Its Ki was > 10000 nM
